RUN DESCRIPTION: in vitro
PARTICULARS: CD1, mouse, liver microsomes
Description: Intrinsic clearance in CD1 mouse liver microsomes by HPLC analysis
OBSERVATION TYPE: microsomal CLint (µL/min/mg)
Numbers only; they are read as µL/min/mg.

The compound `COc1ccc(/C=C2\NC(=O)N(CCCCN3CCN(c4ccccc4OC)CC3)C2=O)cc1OC1CCCC1` showed microsomal CLint equal to 136

====

RUN DESCRIPTION: in vitro
PARTICULARS: CD1, mouse, microsomes
Description: Half-life in CD1 mouse liver microsomes by HPLC analysis
OBSERVATION TYPE: half-life

The compound CC(C)NCC(O)COc1cccc2ccccc12 (stereo unspecified) showed half-life equal to 1.41 h

====

TARGET DESC: 3',5'-cyclic-AMP phosphodiesterase 4B (Homo sapiens) (UniProt Q07343)
Sequence (Q07343 whole entry): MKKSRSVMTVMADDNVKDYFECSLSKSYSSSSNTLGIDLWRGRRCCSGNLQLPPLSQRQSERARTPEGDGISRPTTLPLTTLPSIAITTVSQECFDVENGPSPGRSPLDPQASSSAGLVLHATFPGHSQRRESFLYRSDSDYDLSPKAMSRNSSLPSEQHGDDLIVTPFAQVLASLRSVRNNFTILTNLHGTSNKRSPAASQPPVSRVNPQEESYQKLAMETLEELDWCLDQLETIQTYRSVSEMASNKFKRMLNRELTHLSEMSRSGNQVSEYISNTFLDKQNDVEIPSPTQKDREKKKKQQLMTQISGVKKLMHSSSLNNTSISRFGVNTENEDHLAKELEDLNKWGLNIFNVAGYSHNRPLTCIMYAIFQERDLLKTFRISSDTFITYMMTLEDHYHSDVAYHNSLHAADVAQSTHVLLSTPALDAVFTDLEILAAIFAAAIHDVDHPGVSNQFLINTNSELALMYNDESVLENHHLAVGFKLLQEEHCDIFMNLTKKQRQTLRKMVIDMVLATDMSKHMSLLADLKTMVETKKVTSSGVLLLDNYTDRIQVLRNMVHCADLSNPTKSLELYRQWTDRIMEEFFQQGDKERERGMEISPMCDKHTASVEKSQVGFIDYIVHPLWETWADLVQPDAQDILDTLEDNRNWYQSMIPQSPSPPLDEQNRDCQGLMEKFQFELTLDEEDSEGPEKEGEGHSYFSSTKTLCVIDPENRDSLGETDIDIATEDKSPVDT
RUN DESCRIPTION: Inhibition of human recombinant full length N-terminal GST-tagged PDE4B1 expressed in baculovirus infected Sf9 cells at 10^-5 M using cAMP as substrate incubated for 20 mins followed by substrate addition by luciferase assay relative to control
We use 5% as the dividing line for inhibition: on or above the line is T, below is F.

hey, is inhibition for this one >= 5%? `COc1ccc(/C=C2\NC(=O)N(CCCN3CCN(c4cccc(Cl)c4Cl)CC3)C2=O)cc1OC1CCCC1` F

hey, is inhibition for this one >= 5%? `COc1ccc(/C=C2\NC(=O)N(CCCCN3CCN(c4ncccn4)CC3)C2=O)cc1OC` T

hey, is inhibition for this one >= 5%? `COc1ccc(/C=C2\NC(=O)N(CCCCN3CCN(c4ncccn4)CC3)C2=O)cc1OC1CCCC1` T

hey, is inhibition for this one >= 5%? `COc1ccc(/C=C2\NC(=O)N(CCCCN3CCN(c4cccc(Cl)c4Cl)CC3)C2=O)cc1OC1CCCC1` F

hey, is inhibition for this one >= 5%? `COc1ccc(/C=C2\NC(=O)N(CCCN3CCN(c4ncccn4)CC3)C2=O)cc1OC1CCCC1` T

hey, is inhibition for this one >= 5%? `COc1ccc(/C=C2\NC(=O)N(CCCN3CCN(c4ccccc4OC)CC3)C2=O)cc1OC1CCCC1` F

hey, is inhibition for this one >= 5%? `COc1ccc(/C=C2\NC(=O)N(CCCCN3CCN(c4ccccc4OC)CC3)C2=O)cc1OC1CCCC1` T

hey, is inhibition for this one >= 5%? `COc1ccc(/C=C2\NC(=O)N(CCCN3CCN(c4ncccn4)CC3)C2=O)cc1OC` F

hey, is inhibition for this one >= 5%? `COc1ccc(/C=C2\NC(=O)N(CCCN3CCN(c4ccccc4OC)CC3)C2=O)cc1OC` T

hey, is inhibition for this one >= 5%? `COc1ccc(/C=C2\NC(=O)N(CCCCN3CCN(c4ccccc4OC)CC3)C2=O)cc1OC` T

====

Kindly state inhibition for each of the entries shown.
TARGET DESC: 5-hydroxytryptamine receptor 6 (Homo sapiens) (UniProt P50406)
Sequence (P50406 whole entry): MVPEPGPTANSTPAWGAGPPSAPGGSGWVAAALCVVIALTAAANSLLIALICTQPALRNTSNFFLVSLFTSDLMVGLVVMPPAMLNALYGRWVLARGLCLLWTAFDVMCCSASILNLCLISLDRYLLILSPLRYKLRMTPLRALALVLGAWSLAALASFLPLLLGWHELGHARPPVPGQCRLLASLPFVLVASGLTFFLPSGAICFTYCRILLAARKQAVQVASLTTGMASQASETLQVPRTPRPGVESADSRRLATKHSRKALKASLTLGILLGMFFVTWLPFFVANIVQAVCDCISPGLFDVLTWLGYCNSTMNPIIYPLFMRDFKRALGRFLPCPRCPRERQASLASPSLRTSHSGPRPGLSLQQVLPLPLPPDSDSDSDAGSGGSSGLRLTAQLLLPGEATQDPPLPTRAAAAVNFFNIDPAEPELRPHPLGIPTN
RUN DESCRIPTION: Displacement of [3H]-LSD from human recombinant 5-HT6 receptor expressed in CHO cells at 10^-6 M incubated for 60 mins by microbeta2 scintillation counter relative to control
Assay type: cell-based

The compound `COc1ccc(/C=C2\NC(=O)N(CCCCN3CCN(c4ncccn4)CC3)C2=O)cc1OC1CCCC1` showed inhibition equal to 8%

The compound `COc1ccc(/C=C2\NC(=O)N(CCCN3CCN(c4ccccc4OC)CC3)C2=O)cc1OC1CCCC1` showed inhibition equal to 13%

The compound `COc1ccc(/C=C2\NC(=O)N(CCCN3CCN(c4cccc(Cl)c4Cl)CC3)C2=O)cc1OC1CCCC1` showed inhibition equal to 70%

Just for reference, ChEMBL document CHEMBL4342411 is where these values come from.
